- measured-target: GSK3α (GST-full length GSK3α) (Homo sapiens (Human))
- Sequence (P49840 whole entry): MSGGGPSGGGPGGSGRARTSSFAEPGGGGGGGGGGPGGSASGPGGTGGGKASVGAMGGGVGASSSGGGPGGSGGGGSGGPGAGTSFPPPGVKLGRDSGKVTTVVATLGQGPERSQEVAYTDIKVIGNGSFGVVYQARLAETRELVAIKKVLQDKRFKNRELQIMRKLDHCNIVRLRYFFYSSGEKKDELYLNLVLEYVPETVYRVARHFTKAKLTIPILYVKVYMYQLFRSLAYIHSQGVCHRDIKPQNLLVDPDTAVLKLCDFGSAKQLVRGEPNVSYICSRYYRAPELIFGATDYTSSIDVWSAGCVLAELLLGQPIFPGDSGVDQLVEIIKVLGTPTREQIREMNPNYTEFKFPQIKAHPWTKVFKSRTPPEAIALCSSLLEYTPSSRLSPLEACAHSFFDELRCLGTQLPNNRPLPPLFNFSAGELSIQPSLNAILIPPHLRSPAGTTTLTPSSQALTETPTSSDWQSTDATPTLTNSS
- protocol-text: GSK3α TR-FRET kinase assay
- Format: biochemical
- condition-parameters: 1 nM GSK3α, 4 μM ATP, 30 minute preincubation, Table 16; read-out: GSK3-A TR-FRET BIOCHEMICAL (TR-FRET)
quantity-name: IC50

{"columns": ["molecule", "quantity-name", "observed"],
 "data": [
  ["CC[C@]1(c2cccc(Cc3ncccc3C(F)(F)F)c2)C2=C(CC(C)(C)CC2=O)Nc2n[nH]cc21 [Compound 947665]", "IC50", "1000 to 5000 nM"],
  ["CCC1(c2cccc(-c3ccnn3C)c2)C2=C(Nc3n[nH]cc31)C(F)C(C)(C)CC2=O (stereo not drawn) [Compound 957509]", "IC50", "100 to 1000 nM"],
  ["CC1(C)CC2=C(C(=O)C1F)[C@]1(CC[C@H](C(F)(F)F)CC1)c1c[nH]nc1N2 (stereo partly drawn) [Compound 917133]", "IC50", "≤ 100 nM"],
  ["CC[C@]1(c2ccccc2)C2=C(CC(C)(C)[C@H](F)C2=O)Nc2n[nH]cc21 [Compound 957403]", "IC50", "100 to 1000 nM"],
  ["CC[C@]1(c2cccc(N(C)c3ccc(C(F)(F)F)nc3)c2)C2=C(CC(C)(C)CC2=O)Nc2n[nH]cc21 [Compound 945474]", "IC50", "≤ 100 nM"]
]}

Give its IC50 value. Item: Cn1nc(C(F)(F)F)cc1S(=O)(=O)N1CCC2(CC1)C1=C(CC(C)(C)CC1=O)Nc1n[nH]cc12 [Compound 947606] ≤ 100 nM

IC50 for CC(C)n1cc(S(=O)(=O)N2CCC3(CC2)C2=C(CC(C)(C)CC2=O)Nc2n[nH]cc23)cn1 [Compound 947607] ? ≤ 100 nM

For the molecule shown here, CC(C)c1nc(S(=O)(=O)N2CCC3(CC2)C2=C(CC(C)(C)CC2=O)Nc2n[nH]cc23)cn1C [Compound 945663] , give the reported IC50. ≤ 100 nM
